Readings of relative viability for the listed compounds
# System: NCI-H1437
# Run Description: relative viability (nuclei count vs DMSO), 5 days (fraction); higher = more cells survive
# Details: first compound 0.08 µM
// keep it numeric: no unit symbol after the value

// known answers, use as guide
compound="O=c1cc(-c2cccc3c2Sc2ccccc2S3)oc(N2CCOCC2)c1 + Cc1nc(NC(=O)N2CCC[C@H]2C(N)=O)sc1-c1ccnc(C(C)(C)C(F)(F)F)c1 [Alpelisib] (partner 2 µM)" readout="relative viability" quantitative_readout=1.07
compound="COc1nc(C)cnc1NS(=O)(=O)c1cccnc1-c1ccc(-c2nnco2)cc1 [Zibotentan] + Cc1nc(NC(=O)N2CCC[C@H]2C(N)=O)sc1-c1ccnc(C(C)(C)C(F)(F)F)c1 [Alpelisib] (partner 2 µM)" readout="relative viability" quantitative_readout=0.949
compound="COc1nc(C)cnc1NS(=O)(=O)c1cccnc1-c1ccc(-c2nnco2)cc1 [Zibotentan] + CC(C)C[C@H](NC(=O)[C@H](Cc1ccccc1)NC(=O)c1cnccn1)B(O)O [Bortezomib] (partner 0.002 µM)" readout="relative viability" quantitative_readout=0.486
compound="COc1nc(C)cnc1NS(=O)(=O)c1cccnc1-c1ccc(-c2nnco2)cc1 [Zibotentan] + CCNC(=O)c1noc(-c2cc(C(C)C)c(O)cc2O)c1-c1ccc(CN2CCOCC2)cc1 [Luminespib] (partner 0.01 µM)" readout="relative viability" quantitative_readout=1.15

Item: COc1nc(C)cnc1NS(=O)(=O)c1cccnc1-c1ccc(-c2nnco2)cc1 [Zibotentan] + CC(=O)c1c(C)c2cnc(Nc3ccc(N4CCNCC4)cn3)nc2n(C2CCCC2)c1=O [Palbociclib] (partner 0.5 µM) | relative viability: 0.327

----------
Measured relative viability of individual entries
# Test system: NCI-H1975
# Run Description: relative viability (nuclei count vs DMSO), 5 days (fraction); higher = more cells survive
# Details: first compound 0.01 µM
Respond using a number only.

Use these answered entries as a reference point.
molecule="O=c1cc(N2CCOCC2)oc2c(-c3cccc4c3sc3ccccc34)cccc12 + CCNC(=O)c1noc(-c2cc(C(C)C)c(O)cc2O)c1-c1ccc(CN2CCOCC2)cc1 [Luminespib] (partner 0.01 µM)" system_tested=NCI-H1975 quantitative_readout=0.198
molecule="O=c1cc(N2CCOCC2)oc2c(-c3cccc4c3sc3ccccc34)cccc12 + CC(=O)Nc1cccc(-n2c(=O)n(C3CC3)c(=O)c3c(Nc4ccc(I)cc4F)n(C)c(=O)c(C)c32)c1 [Trametinib] (partner 0.02 µM)" system_tested=NCI-H1975 quantitative_readout=0.434
molecule="CCN(CC)CCCCNc1ncc2cc(-c3cc(OC)cc(OC)c3)c(NC(=O)NC(C)(C)C)nc2n1 + CC1(C)CCC(c2ccc(Cl)cc2)=C(CN2CCN(c3ccc(C(=O)NS(=O)(=O)c4ccc(N[C@H](CCN5CCOCC5)CSc5ccccc5)c(S(=O)(=O)C(F)(F)F)c4)cc3)CC2)C1 [Navitoclax] (partner 0.5 µM)" system_tested=NCI-H1975 quantitative_readout=1.14

From here, focus on the item given below.
Measured relative viability of O=c1cc(N2CCOCC2)oc2c(-c3cccc4c3sc3ccccc34)cccc12 + Cc1nc(NC(=O)N2CCC[C@H]2C(N)=O)sc1-c1ccnc(C(C)(C)C(F)(F)F)c1 [Alpelisib] (partner 2 µM) : 0.619
